Recorded values, source a collection of fitness landscapes (doi:10.1016/j.celrep.2020.107928).

B1: Caulobacter ParB omega fusion; a variant is named by its letters at X, in order, B8GW30 (parent)
chain: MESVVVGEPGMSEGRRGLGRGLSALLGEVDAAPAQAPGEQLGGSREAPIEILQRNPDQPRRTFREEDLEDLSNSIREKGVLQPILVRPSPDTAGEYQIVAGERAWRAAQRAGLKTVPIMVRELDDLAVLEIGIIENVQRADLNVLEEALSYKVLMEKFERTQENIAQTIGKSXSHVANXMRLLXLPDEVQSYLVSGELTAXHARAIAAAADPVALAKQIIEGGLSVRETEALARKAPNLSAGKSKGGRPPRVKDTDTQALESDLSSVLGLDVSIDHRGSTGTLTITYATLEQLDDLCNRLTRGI

Variants of: B1
procedureSummary: one-hybrid fitness for binding parS DNA (scaled: cognate 1, non-cognate 0); higher = stronger binding
measurementSetup: with parS DNA site
The full ranking holds about 81,000 sequences; the median of “one-hybrid fitness for binding parS DNA” is about -0.17, and the highest 2% start at about 0.51. The sample holds the highest values, similar sequences and a random draw of the others, so the mix is not that of the screen.
measure: one-hybrid fitness for binding parS DNA

RRND: ≤ 0.2

(Q) Input QYTT , output reported one-hybrid fitness for binding parS DNA.
(A) ≤ 0.2

(Q) Input PITI , output reported one-hybrid fitness for binding parS DNA.
(A) ≤ 0.2
